Sourced from ChEMBL document CHEMBL4825768

target_system: GTPase KRas (Homo sapiens, UniProt P01116, G12C)
assay_text: Inhibition of GDP-bound KRAS G12C mutant (1 to 169 residues) (unknown origin) assessed as inhibition of SOS-mediated nucleotide exchange pretreated with KRAS for 5 mins followed by incubation with SOS (564 to 1049 residues) and GTP for 30 mins and later incubated with GST-tagged cRAF (1 to 149 residues) for 10 mins by AlphaLISA assay
Type: single protein
pIC50: −log10 of the molar value.

# compound, pIC50
records = [
    ("Cc1ccnc(C(C)C)c1-n1c(=O)nc(N2CC(NC(=O)C3CO3)C2)c2cc(Cl)c(-c3ccccc3F)nc21 (stereo unspecified)", 5.36),
    ("COC(=O)/C=C/C(=O)N1CCN(c2nc(=O)n(-c3c(C)ccnc3C(C)C)c3nc(-c4ccccc4F)c(Cl)cc23)[C@@H](C)C1", 7.02),
    ("Cc1ccnc(C(C)C)c1-n1c(=O)nc(N2CCN(C(=O)[C@@H]3O[C@H]3CN3CCCCC3)C[C@@H]2C)c2cc(Cl)c(-c3ccccc3F)nc21", 5.95),
    ("Cc1ccnc(C(C)C)c1-n1c(=O)nc(N(C)C2CN(C(=O)C3CO3)C2)c2cc(Cl)c(-c3ccccc3F)nc21 (stereo unspecified)", 4.86),
    ("Cc1ccnc(C(C)C)c1-n1c(=O)nc(N2CCN(C(=O)C=O)C[C@@H]2C)c2cc(Cl)c(-c3ccccc3F)nc21", 6.21),
    ("Cc1ccnc(C(C)C)c1-n1c(=O)nc(N2C[C@@H](C)N(C(=O)[C@H]3CO3)C[C@@H]2C)c2cc(Cl)c(-c3c(O)cccc3F)nc21", 6.19),
    ("Cc1ccnc(C(C)C)c1-n1c(=O)nc(N2CCN(C(=O)[C@H]3CO3)C[C@@H]2C)c2cc(Cl)c(-c3ccccc3F)nc21", 5.42),
    ("Cc1ccnc(C(C)C)c1-n1c(=O)nc(N2C[C@@H](C)N(C(=O)[C@H]3CO3)C[C@@H]2C)c2cc(Cl)c(-c3c(N)cccc3F)nc21", 6.25),
    ("CCOC(=O)[C@@H]1O[C@H]1C(=O)N1CCN(c2nc(=O)n(-c3c(C)ccnc3C(C)C)c3nc(-c4ccccc4F)c(Cl)cc23)[C@@H](C)C1", 6.67),
    ("Cc1ccnc(C(C)C)c1-n1c(=O)nc(N2CCN(C(=O)C3OC3C)C[C@@H]2C)c2cc(Cl)c(-c3ccccc3F)nc21 (stereo partly specified)", 4.75),
    ("Cc1ccnc(C(C)C)c1-n1c(=O)nc(N2CCN(C(=O)[C@@H]3O[C@H]3CO)C[C@@H]2C)c2cc(Cl)c(-c3ccccc3F)nc21", 5.20),
]

###

target_system: GTPase KRas (Homo sapiens, UniProt P01116, G12C)
assay_text: Inhibition of GDP-bound KRAS G12C mutant (1 to 169 residues) (unknown origin) assessed as inhibition of SOS-mediated nucleotide exchange pretreated with KRAS for 20 hrs followed by incubation with SOS (564 to 1049 residues) and GTP for 30 mins and later incubated with GST-tagged cRAF (1 to 149 residues) for 10 mins by AlphaLISA assay
Format: single protein
pIC50: −log10 of the molar value.

# compound, target_system, pIC50
measured = [
    ("Cc1ccnc(C(C)C)c1-n1c(=O)nc(N2CCN(C(=O)[C@H]3CO3)C[C@@H]2C)c2cc(Cl)c(-c3ccccc3F)nc21", "GTPase KRas (Homo sapiens, UniProt P01116, G12C)", 7.57),
    ("Cc1ccnc(C(C)C)c1-n1c(=O)nc(N2C[C@@H](C)N(C(=O)[C@H]3CO3)C[C@@H]2C)c2cc(Cl)c(-c3c(N)cccc3F)nc21", "GTPase KRas (Homo sapiens, UniProt P01116, G12C)", 7.82),
    ("Cc1ccnc(C(C)C)c1-n1c(=O)nc(N2CCN(C(=O)[C@@H]3O[C@H]3CN3CCCCC3)C[C@@H]2C)c2cc(Cl)c(-c3ccccc3F)nc21", "GTPase KRas (Homo sapiens, UniProt P01116, G12C)", 8.30),
    ("Cc1ccnc(C(C)C)c1-n1c(=O)nc(N(C)C2CN(C(=O)C3CO3)C2)c2cc(Cl)c(-c3ccccc3F)nc21 (centres undefined)", "GTPase KRas (Homo sapiens, UniProt P01116, G12C)", 6.64),
]
